test-name: Multi-component pharmacokinetic study of GQD, GQD-GC and single herb extracts in rats (plasma, LC/MS/MS)
Format: in vivo, Sprague-Dawley rats
details: male, Sprague-Dawley, rat; HL (Huang-Lian) group: rats, oral extract 3.54 g/kg, plasma; read-out: T1/2 (converted)
quantity-kind: half-life
Your reply should be a number followed by the unit it is expressed in.

Worked cases, answers included:
• COc1ccc2cc3[n+](cc2c1OC)CCc1cc2c(cc1-3)OCO2 = 9.3 h
• COc1cc2c(cc1O)CC[n+]1cc3c(OC)c(OC)ccc3cc1-2 = 5.15 h
• COc1ccc2c(c1O)-c1c(O)c(OC)cc3c1[C@H](C2)[N+](C)(C)CC3 = 10.2 h

Now look at this one.
Annotate the molecule COc1cc2c(cc1OC)-c1cc3ccc4c(c3c[n+]1CC2)OCO4 [Compound 22, epiberberine] with its measured half-life.
4.34 h
